ASSAY_TEXT: Toxicokinetics of BAK in rat plasma after a single oral dose
Format: in vivo, Sprague–Dawley rats
STATED_CONDITIONS: Sprague-Dawley, rat, plasma, po, 200 mg/kg, 4.000 h after single oral dose; read-out: BAK concentration in rat plasma, single rats 1-5
READOUT: concentration at 4 h (ng/mL)
Response body: numeric value in ng/mL, unit text excluded.

Qu. Which concentration at 4 h is reported for this compound? C=C[C@@](C)(/C=C/c1ccc(O)cc1)CCC=C(C)C
Ans. 881

====

TARGET_UNDER_TEST: CYP1A2 (Homo sapiens)
Construct: tissue iPhase Pharmaceutical Services (Beijing, China) Lot # 7MMC011; host or cells: pooled human liver microsomes
Sequence (P05177 1-516): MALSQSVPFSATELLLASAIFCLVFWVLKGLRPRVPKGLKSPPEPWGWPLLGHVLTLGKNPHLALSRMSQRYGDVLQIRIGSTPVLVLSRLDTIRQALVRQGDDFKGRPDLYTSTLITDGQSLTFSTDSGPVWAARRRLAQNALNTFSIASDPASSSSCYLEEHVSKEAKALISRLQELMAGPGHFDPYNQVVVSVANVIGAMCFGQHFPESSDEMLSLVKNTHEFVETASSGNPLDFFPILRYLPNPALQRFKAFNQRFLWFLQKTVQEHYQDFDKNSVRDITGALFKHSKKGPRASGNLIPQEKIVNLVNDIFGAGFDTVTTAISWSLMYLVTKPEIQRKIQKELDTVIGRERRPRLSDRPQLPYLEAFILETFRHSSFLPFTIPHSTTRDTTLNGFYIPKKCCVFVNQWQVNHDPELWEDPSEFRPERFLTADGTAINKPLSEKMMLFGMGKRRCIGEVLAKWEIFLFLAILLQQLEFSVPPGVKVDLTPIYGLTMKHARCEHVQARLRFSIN
ASSAY_TEXT: Inhibition of CYP activities by GA in HLMs (phenacetin)
Type: biochemical
STATED_CONDITIONS: human, human liver microsomes, probe phenacetin (25 µM); CYP1A2-30min; GA 31.2500; vs control; read-out: Relative activity (%)
READOUT: activity at 30 min, 31.25 µM (%)
Response body: numeric value in %, unit text excluded.

Qu. Could you share what activity at 30 min, 31.25 µM was measured for CC1(C)[C@@H](O)CC[C@]2(C)[C@H]3C(=O)C=C4[C@@H]5C[C@@](C)(C(=O)O)CC[C@]5(C)CC[C@@]4(C)[C@]3(C)CC[C@@H]12 [GA, Glycyrrhetinic acid] , tested on CYP1A2 (Homo sapiens)?
Ans. 70.9

====

TARGET_UNDER_TEST: CYP2C19 (Homo sapiens, UniProt P33261)
Construct: was investigated in HLMs; tissue iPhase Pharmaceutical Services (Beijing, China) Lot # 7MMC011; host or cells: pooled human liver microsomes
Sequence (P33261 whole entry): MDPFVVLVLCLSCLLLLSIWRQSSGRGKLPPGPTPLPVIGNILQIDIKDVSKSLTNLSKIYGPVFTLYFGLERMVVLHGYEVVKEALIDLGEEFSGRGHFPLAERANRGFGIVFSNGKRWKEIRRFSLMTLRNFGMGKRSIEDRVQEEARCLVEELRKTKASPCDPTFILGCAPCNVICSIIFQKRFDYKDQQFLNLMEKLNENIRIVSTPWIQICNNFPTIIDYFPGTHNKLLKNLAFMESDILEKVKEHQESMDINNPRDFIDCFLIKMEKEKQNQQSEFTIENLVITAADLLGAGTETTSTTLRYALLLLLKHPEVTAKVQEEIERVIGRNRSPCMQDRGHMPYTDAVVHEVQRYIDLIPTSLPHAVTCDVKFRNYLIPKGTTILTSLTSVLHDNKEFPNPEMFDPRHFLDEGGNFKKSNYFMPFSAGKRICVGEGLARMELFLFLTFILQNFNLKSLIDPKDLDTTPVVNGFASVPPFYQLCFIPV
ASSAY_TEXT: Inhibition of CYP activities by GA in HLMs (mephenytoin)
Assay type: biochemical
STATED_CONDITIONS: human, human liver microsomes, probe mephenytoin (25 µM); CYP2C19-30min; GA 100.0000; vs control; read-out: Relative activity (%)
READOUT: activity at 30 min, 100 µM (%)
Response body: numeric value in %, unit text excluded.

Qu. Which activity at 30 min, 100 µM is reported for this compound? CC1(C)[C@@H](O)CC[C@]2(C)[C@H]3C(=O)C=C4[C@@H]5C[C@@](C)(C(=O)O)CC[C@]5(C)CC[C@@]4(C)[C@]3(C)CC[C@@H]12
Ans. 72.5
